B1: mRNA-splicing (parent)
chain: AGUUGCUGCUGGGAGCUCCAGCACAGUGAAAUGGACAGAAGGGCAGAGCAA

# Variants of: B1
# test: exon inclusion enrichment index; higher = more inclusion; WT1 exon 5 minigene, HEK293
valueKind: exon inclusion enrichment index
The answer should be written as a number, with no unit following it.

Below: 5 variants and their reported exon inclusion enrichment index.
# variantSpec, exon inclusion enrichment index
rows = [
    ("G5U G8U C9U C18U", 0.0536),
    ("G5C C6A U7C G8A U10C", 1.71),
    ("G5A U7C G8A U10C A35C C36G", 2.06),
    ("G5U G8U C9U C19G", 0.0649),
    ("G5C C6A U7C G8A U10A C22A A23G", 0.124),
]

Return reported exon inclusion enrichment index; argument: G5A U7C G8A U10C G12A G13A
0.689

Record request: exon inclusion enrichment index value, item G5A U7C G8A U10C A30G A31C
0.305

If you can, please state the reported exon inclusion enrichment index value of G5C C6A U7C G8A U10A A40U G41C .
0.451

I have this variant here, G5U C6A U7C G8A U10A , and I need its recorded exon inclusion enrichment index.
0.0713

GET /values?readout=exon inclusion enrichment index&item= G5A C6G U7G C9A G11U G12C
0.00339

Fill in the blank: the reported exon inclusion enrichment index of C6A U7C C9A U10C U17G C18U is ____.
1.64

# lookup: exon inclusion enrichment index of C6A U7C C9A U10C C36G A37G
1.36

State the recorded exon inclusion enrichment index for this entry: G5C C6A U7C G8A U10A G12U G13U
0.00142

Query (variant): C6A U7C C9A U10C A23G ; field requested: exon inclusion enrichment index
4.36
